Values from ChEMBL document CHEMBL4706536

experiment: Half life in human liver microsomes at 1 uM in presence of NADPH preincubated for 15 mins followed by NADPH addition and measured up to 60 mins by LC-MS/MS analysis; assay type: ADME, Microsome; details: time 15-75 min
Readings of half-life at 1 µM for the listed compounds
Kindly provide the numeric value in min only, without the unit symbol.

// solved cases for half-life at 1 µM follow
| Compound String | Output Unit | Assay Value |
| --- | --- | --- |
| COc1ccc2[nH]cc(CC(=O)N[C@@H](Cc3ccccc3)C(=O)N(C)c3ccc(Cl)cc3)c2c1 | min | 1.8 |
| CN(C(=O)[C@H](Cc1ccccc1)NC(=O)Cn1cnc2c1c(=O)n(C)c(=O)n2C)c1ccccc1 | min | 4.7 |

Field: next compound
Look up half-life at 1 µM for this compound: COc1ccc2[nH]cc(CC(=O)N[C@@H](Cc3ccccc3)C(=O)N(C)c3ccccc3)c2c1 1.2
